Target: T1, human Rh(D) antigen on Rh(D)-positive red blood cells (human, UniProt Q02161 2-417)
T1 construct: whole, on cells; also called wt; wild type Rh(D)
T1 sequence (looked up): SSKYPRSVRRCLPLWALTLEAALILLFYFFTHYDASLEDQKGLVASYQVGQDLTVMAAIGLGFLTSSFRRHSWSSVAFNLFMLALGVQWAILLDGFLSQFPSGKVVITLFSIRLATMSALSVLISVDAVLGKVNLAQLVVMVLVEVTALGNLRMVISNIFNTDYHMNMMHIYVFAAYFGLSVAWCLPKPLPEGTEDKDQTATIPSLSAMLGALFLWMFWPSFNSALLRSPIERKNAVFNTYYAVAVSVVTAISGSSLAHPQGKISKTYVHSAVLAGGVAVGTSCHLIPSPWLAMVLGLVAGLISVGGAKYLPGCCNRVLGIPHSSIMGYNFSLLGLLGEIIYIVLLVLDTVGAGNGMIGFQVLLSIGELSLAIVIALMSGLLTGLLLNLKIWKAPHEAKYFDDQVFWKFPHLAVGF
Assay: agglutination, anti-M13

BINDER | binding result
SH36 (Fab, V domains shown, Fab on M13 phage) VH: EVQLLESGGGVVQPGRSLRLSCEASKFTLYNYGMHWVRQAPGKGLEWVAFIWFDGSNKYYEDSVKGRFTVSRDNSKNTLYLQMNSLRAEDTAVYYCAREGSKKVALSRYYYYMDVWGQGTTVTVSS VL: AELTQSPSSLSASVGDRVTITCRASQSISSYLNWYQQKPGKSPKLLIYAASSLQSGVPSRFSGSGSGTDFTLTISSLQPEDFATYYCQQSYSTPPAFGPGTKVDIKR | binds

// provenance: patent US8124742
